B1: glmS ribozyme (parent)
chain: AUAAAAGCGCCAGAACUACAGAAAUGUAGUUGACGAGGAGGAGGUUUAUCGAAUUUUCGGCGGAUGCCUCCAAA

# Variants of: B1
# MEASUREMENT_NOTES: self-cleavage kobs at 10000 uM GlcN6P; higher = faster cleavage; RNA array
# DETAILS: with glucosamine-6-phosphate
Variants at the floor of the assay were thinned out.
Lab note: anything with self-cleavage kobs at 10000 uM GlcN6P at or over 0.0004 s⁻¹ counts as YES; the rest go in NO.

# RESIDUE_CHANGE, CLASS_LABEL
records = [
    ("U30G A42U", "NO"),
    ("A12U A39C A42U G60A", "NO"),
    ("C10A G43U", "NO"),
    ("U31C G41U", "NO"),
    ("A42G U46A A64G", "YES"),
    ("G41A U45G", "NO"),
    ("G35U A52C", "NO"),
    ("A39C U46C U56C", "NO"),
    ("C10A G29A C67G", "NO"),
    ("G29U U30A", "NO"),
    ("C16A U31C G41C C68A", "NO"),
    ("G7U G13A G38U A52C A53C", "NO"),
    ("C34A C58U", "NO"),
    ("A6C G35A", "NO"),
    ("A14G C71G", "YES"),
    ("C11A G29U", "NO"),
    ("G37A G38U U65C", "NO"),
    ("G26U U46G", "YES"),
    ("G29C G32U C70A", "NO"),
    ("G7U A12G G35A A39G U49A C67A", "NO"),
    ("C11U C71G", "NO"),
    ("A36G G60C", "NO"),
    ("A14U U65G", "YES"),
    ("C11U G37A", "NO"),
    ("C11U U30A", "YES"),
    ("A64G C70U", "YES"),
    ("A6C A36U U69A", "NO"),
    ("G40A C67A C70A", "NO"),
    ("G13C C70U", "NO"),
    ("U46G U65C", "NO"),
    ("C16A U47C C50G G66A C67U U69G", "NO"),
    ("G41U U46G G59C", "NO"),
    ("A12C A53C", "YES"),
    ("G32A A42G A53G", "YES"),
    ("A53G C67G", "YES"),
    ("A48G U54C", "NO"),
    ("A42C G44U G66U", "NO"),
    ("U31C U56A C67U", "YES"),
    ("A6C A12U U30A A48C", "NO"),
    ("A6C C50G A64U", "NO"),
    ("C16G U46G C67U", "NO"),
    ("A52C G62U", "NO"),
    ("U55A C68U", "YES"),
    ("G9A G29C", "NO"),
    ("C10U C16U G38A A48G", "NO"),
]

Data credit: the supplement of paper PMC7125110
